target-entity: GLP-1 Receptor (Homo sapiens)
Sequence (P43220 24-463, species assumed): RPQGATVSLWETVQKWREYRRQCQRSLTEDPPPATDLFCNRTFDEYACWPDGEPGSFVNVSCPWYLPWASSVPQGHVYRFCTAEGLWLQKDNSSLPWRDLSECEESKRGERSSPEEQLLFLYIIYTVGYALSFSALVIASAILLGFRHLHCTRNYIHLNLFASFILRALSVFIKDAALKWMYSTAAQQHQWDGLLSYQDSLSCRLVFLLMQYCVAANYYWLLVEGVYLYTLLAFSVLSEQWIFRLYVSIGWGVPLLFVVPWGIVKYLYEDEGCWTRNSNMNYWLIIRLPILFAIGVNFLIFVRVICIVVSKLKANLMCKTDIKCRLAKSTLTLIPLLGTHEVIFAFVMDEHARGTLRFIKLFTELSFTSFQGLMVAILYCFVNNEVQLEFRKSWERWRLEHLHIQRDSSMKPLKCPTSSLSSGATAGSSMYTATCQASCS
assay-overview: GLP-1R agonist cAMP stimulation assay (HEK293/GLP1R/CRE-LUC cells, Cisbio cAMP dynamic 2 kit)
experimental-context: HEK293/CRE-Luc cells stably expressing the GLP-1 Receptor, 30 min at 37° C.
parameter: EC50

>>> df
                                smiles_text  parameter       result
0  Cc1ccc(COc2cccc(C3CCN(Cc4nc5cc(-c6nnc(C(F)(F)F)[nH]6)ncc5n4C[C@@H]4CCO4)CC3)n2)nn1       EC50       < 1 nM
1  COCCNC(=O)c1cc2nc(CN3CCC(c4cccc5c4O[C@@](C)(c4ccc(Cl)cc4F)O5)CC3)n(C[C@@H]3CCO3)c2cn1       EC50       < 1 nM
2  O=C(O)c1cc2nc(CN3CC=C(c4ccc(F)c(OCc5ccc(Cl)cc5F)c4)CC3)n(C[C@@H]3CCO3)c2cn1       EC50  1 to 100 nM
